Assay: Pharmacokinetics in mice (i.v. and p.o.)
Format: in vivo, male CD-1 mice
Conditions: mouse, plasma, iv; male CD-1 mice, single i.v. dose 1 mg/kg, dose type A (5% dimethyl acetamide, tetraethylene glycol); read-out: i.v. CL (converted)
Procedure: Each compound is administered intravenously (i.v.) as a single dose via tail vein or orally (p.o.) as a single dose via gastric gavage to male CD-1 mice of nominal weights between 20 g and 26 g. […] Pharmacokinetic parameters are calculated from mean concentration values using a non-compartmental analysis as described in the following and as apparent to those of ordinary skill in the art. […] Area under the curve (AUC) values are calculated using linear trapezoidal integration. […]
Attribute measured: clearance (mL/min/kg)
Unit mL/min/kg implied. Number only.

-- ask Quickly give me recorded clearance for CC(C)(C)C(=O)n1nc(C2CCNCC2)c(F)c1NCc1ccc(Cl)s1 [Cmpd 24]
-- reply 83.3

====

target: Human thrombin (Homo sapiens (Human)); assay: Thrombin protease activity inhibition assay (chromogenic substrate S-2238); assay type: biochemical; settings: 3 nM thrombin, 125 μM S-2238, 10 min pre-incubation, RT
pIC50: −log10 of the molar value.
Attribute measured: pIC50

Some entries whose results are on file:
Line notation	Result
O=C(c1ccccc1)n1nc(-c2cccn(Cc3ccsc3)c2=O)cc1NCc1ccc(Cl)s1	> 7.00
CC1(C(=O)n2nc(-c3cccn(Cc4cccs4)c3=O)cc2NCc2ccc(Cl)s2)CCOCC1	> 7.00
O=C(c1ccccc1Cl)n1nc(-c2cccn(Cc3ccncc3)c2=O)cc1NCc1ccc(Cl)s1	> 7.00
COCC(C)(C)C(=O)n1nc(-c2cccn(Cc3cccnc3)c2=O)cc1NCc1ccc(Cl)s1	> 7.00
CC(C)(C)C(=O)n1nc(-c2cccn(CCN3CCOCC3)c2=O)cc1NCc1ccc(Cl)s1	> 7.00

-- ask Quickly give me recorded pIC50 for N#CCn1cccc(-c2cc(NCc3ccc(Cl)s3)n(C(=O)c3ccoc3)n2)c1=O
-- reply > 7.00

-- ask Quickly give me recorded pIC50 for CC1(C(=O)n2nc(-c3cccn(CCN4CCOCC4)c3=O)cc2NCc2ccc(Cl)s2)CCOCC1
-- reply < 4.00

-- ask Quickly give me recorded pIC50 for O=C(c1ccsc1)n1nc(-c2cccn(Cc3ccoc3)c2=O)cc1NCc1ccc(Cl)s1
-- reply > 7.00

====

target: UniProt P03952; experiment: KLKB1 kallikrein activity inhibition assay (chromogenic substrate S-2302); assay type: biochemical; conditions: Table C
pIC50: −log10 of the molar value.
Examples of compounds with documented pIC50 follow.

Line notation	pIC50
O=C(c1ccccc1Cl)n1nc(-c2ccccn2)nc1NCc1ccccc1	6.00 to 7.00
COc1ccccc1C(=O)n1nc(-c2cccnc2)nc1SCc1ccc(F)cc1	6.00 to 7.00
COc1ccccc1C(=O)n1nc(C2CCN(C(=O)C(C)(C)C)CC2)nc1NCc1ccc(Cl)s1	6.00 to 7.00
COc1ccccc1C(=O)n1nc(-c2ccccc2)nc1NCc1ccsc1	4.00 to 5.00
COc1ccc(CNc2nc(-c3cccnc3)nn2C(=O)CC(C)C)cc1	< 4.00
CCCC(=O)n1nc(-c2ccncc2)nc1NCc1ccc(F)cc1	< 4.00
COc1ccc(CNc2nc(-c3ccccn3)nn2C(=O)c2ccco2)cc1	5.00 to 6.00
O=C(CCc1ccccc1)n1nc(-c2ccncc2)nc1NCc1ccccc1	< 4.00
COc1ccc(CNc2nc(-c3ccccn3)nn2C(=O)Cc2ccccc2)cc1	4.00 to 5.00
COc1ccc(CNc2nc(-c3ccccn3)nn2C(=O)c2ccoc2)cc1	4.00 to 5.00

-- ask Quickly give me recorded pIC50 for CCCC(=O)n1nc(-c2ccccn2)nc1NCc1ccc(OC)cc1
-- reply 4.00 to 5.00

-- ask Quickly give me recorded pIC50 for COc1ccc(CNc2nc(-c3ccncc3)nn2C(=O)c2ccco2)cc1
-- reply < 4.00

-- ask Quickly give me recorded pIC50 for CCCC(=O)n1nc(-c2ccccn2)nc1NCc1ccccc1
-- reply 4.00 to 5.00

-- ask Quickly give me recorded pIC50 for COc1ccccc1C(=O)n1nc(C2CCOCC2)nc1NCc1ccc(Cl)s1
-- reply 6.00 to 7.00

-- ask Quickly give me recorded pIC50 for CCCC(=O)n1nc(-c2cccnc2)nc1NCc1ccc(OC)cc1
-- reply 4.00 to 5.00

-- ask Quickly give me recorded pIC50 for COc1ccccc1C(=O)n1nc(-c2ccccn2)nc1NCc1nccs1
-- reply 4.00 to 5.00

-- ask Quickly give me recorded pIC50 for CC(C)C(=O)n1nc(-c2ccccn2)nc1NCc1ccccc1
-- reply 4.00 to 5.00

-- ask Quickly give me recorded pIC50 for CCCC(=O)n1nc(-c2ccncc2)nc1NCc1ccccc1
-- reply < 4.00

-- ask Quickly give me recorded pIC50 for CC(C)C(=O)n1nc(-c2cccnc2)nc1NCc1ccc(F)cc1
-- reply 4.00 to 5.00

-- ask Quickly give me recorded pIC50 for O=C(c1ccco1)n1nc(-c2ccccn2)nc1NCc1ccc(F)cc1
-- reply 5.00 to 6.00

====

Examples of compounds with documented pIC50 follow.
target: Recombinant human tissue kallikrein (KLK1) (Homo sapiens (Human), UniProt P06870); assay: KLK1 kallikrein activity inhibition assay (Pro-Phe-Arg-AMC substrate); type: biochemical; settings: Table C
Sequence (P06870 25-262): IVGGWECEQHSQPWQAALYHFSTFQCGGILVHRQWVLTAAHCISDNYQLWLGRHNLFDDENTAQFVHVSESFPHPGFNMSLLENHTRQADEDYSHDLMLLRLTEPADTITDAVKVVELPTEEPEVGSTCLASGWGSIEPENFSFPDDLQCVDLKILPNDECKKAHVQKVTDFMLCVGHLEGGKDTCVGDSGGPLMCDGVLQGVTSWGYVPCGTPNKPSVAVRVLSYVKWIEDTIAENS
pIC50: −log10 of the molar value.

Some entries whose results are on file:
Line notation	Attribute measured	Result
Cc1ccccc1C(=O)n1nc(-c2ccccn2)nc1NCc1ccc(Cl)s1	pIC50	4.00 to 5.00
O=C(c1ccccc1)n1nc(-c2ccccn2)nc1NCc1ccccc1	pIC50	4.00 to 5.00
COc1ccccc1C(=O)n1nc(-c2cccnc2)nc1SC	pIC50	5.00 to 6.00
COc1ccc(C(=O)n2nc(C3CCOCC3)nc2NCc2ccc(Cl)s2)c(OC)c1	pIC50	4.00 to 5.00
COc1ccccc1C(=O)n1nc(-c2ccccn2)nc1NCc1nccs1	pIC50	6.00 to 7.00

-- ask Quickly give me recorded pIC50 for COc1ccc(CNc2nc(-c3ccccn3)nn2C(=O)CCc2ccccc2)cc1
-- reply 4.00 to 5.00

-- ask Quickly give me recorded pIC50 for COc1ccccc1C(=O)n1nc(-c2ccccn2)nc1NCc1ccc(Cl)s1
-- reply 4.00 to 5.00

-- ask Quickly give me recorded pIC50 for O=C(c1ccsc1)n1nc(-c2ccncc2)nc1NCc1ccccc1
-- reply < 4.00

====

molecular target: Human thrombin (Homo sapiens (Human), UniProt P00734); experiment: Thrombin protease activity inhibition assay (chromogenic substrate S-2238); type: biochemical; settings: 3 nM thrombin, 125 μM S-2238, 10 min pre-incubation, RT
pIC50: −log10 of the molar value.
Examples of molecules with documented pIC50 follow.

Some entries whose results are on file:
Molecule	pIC50
O=C(c1cccs1)n1nc(-c2cccn(Cc3cccnn3)c2=O)cc1NCc1ccc(Cl)s1 [Cmpd 185]	< 4.00
CC(C)(CO)C(=O)n1nc(-c2cccn(Cc3cccnc3)c2=O)cc1NCc1ccc(Cl)s1 [Cmpd 94]	> 7.00
O=C(c1ccoc1)n1nc(-c2cccn(CCc3ccccc3)c2=O)cc1NCc1ccc(Cl)s1 [Cmpd 172]	> 7.00

Lab note: next molecule to report on.
-- ask Quickly give me recorded pIC50 for O=C(c1ccc(N2CCOCC2)cc1)n1nc(-c2cccn(Cc3ccco3)c2=O)cc1NCc1ccc(Cl)s1 [Cmpd 209]
-- reply > 7.00

====

biological target: Human KLKB1 (Homo sapiens (Human), UniProt P03952); assay: KLKB1 kallikrein activity inhibition assay (chromogenic substrate S-2302); format: biochemical; settings: Table C
Sequence (P03952 391-638 limits assumed): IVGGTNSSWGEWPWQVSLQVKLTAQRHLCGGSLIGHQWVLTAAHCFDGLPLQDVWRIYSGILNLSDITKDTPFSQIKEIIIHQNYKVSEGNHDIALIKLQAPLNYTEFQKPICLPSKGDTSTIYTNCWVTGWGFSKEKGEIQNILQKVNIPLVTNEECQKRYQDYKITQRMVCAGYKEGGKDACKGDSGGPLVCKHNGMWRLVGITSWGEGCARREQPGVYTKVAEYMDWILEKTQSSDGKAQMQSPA
Sequence (P03952 20-390 partner limits assumed): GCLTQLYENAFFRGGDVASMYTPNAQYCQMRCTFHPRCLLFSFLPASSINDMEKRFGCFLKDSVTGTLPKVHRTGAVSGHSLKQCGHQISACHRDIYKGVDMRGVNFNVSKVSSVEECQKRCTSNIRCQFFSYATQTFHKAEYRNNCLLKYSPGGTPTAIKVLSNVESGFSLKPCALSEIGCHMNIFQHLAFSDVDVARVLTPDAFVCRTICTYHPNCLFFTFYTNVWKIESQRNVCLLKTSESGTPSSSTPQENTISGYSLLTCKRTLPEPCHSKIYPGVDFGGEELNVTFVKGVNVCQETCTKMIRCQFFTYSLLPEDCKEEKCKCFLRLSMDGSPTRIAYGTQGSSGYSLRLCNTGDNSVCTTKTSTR
Attribute measured: IC50

Some entries whose results are on file:
Line notation	IC50
CCC(=O)n1nc(-c2ccccn2)nc1NCc1ccccc1	10 to 100 µM
CC(C)(C)C(=O)n1nc(-c2ccncc2)nc1NCc1ccccc1	> 100 µM

-- ask Quickly give me recorded IC50 for O=C(c1c(F)cccc1F)n1nc(-c2ccccn2)nc1NCc1ccccc1
-- reply > 100 µM

-- ask Quickly give me recorded IC50 for O=C(c1ccccc1)n1nc(-c2ccncc2)nc1NCc1ccccc1
-- reply 0.1 to 1 µM

-- ask Quickly give me recorded IC50 for COc1ccc(CNc2nc(-c3cccnc3)nn2C(=O)c2ccsc2)cc1
-- reply 1 to 10 µM

-- ask Quickly give me recorded IC50 for COc1ccc(CNc2nc(-c3cccnc3)nn2C(=O)c2ccoc2)cc1
-- reply > 100 µM

-- ask Quickly give me recorded IC50 for Fc1ccc(CNc2nc(-c3ccccn3)nn2-c2nc3ccccc3s2)cc1
-- reply > 100 µM

-- ask Quickly give me recorded IC50 for COc1ccccc1C(=O)n1nc(-c2ccc(N(C)C)cc2)nc1NCc1ccc(Cl)s1
-- reply 0.1 to 1 µM

====

Examples of compounds with documented IC50 follow.
biological target: Human thrombin (Homo sapiens (Human), UniProt P00734); assay: Thrombin protease activity inhibition assay (chromogenic substrate S-2238); assay type: biochemical; conditions: 3 nM thrombin, 125 μM S-2238, 10 min pre-incubation, RT

-- ask Quickly give me recorded IC50 for O=c1c(-c2cc(NCc3ccc(Cl)s3)[nH]n2)cccn1Cc1ccc(Cl)cc1
-- reply > 100000 nM

-- ask Quickly give me recorded IC50 for O=C(Cn1cccc(-c2cc(NCc3ccc(Cl)s3)n(C(=O)c3ccoc3)n2)c1=O)N1CCOCC1
-- reply < 100 nM

-- ask Quickly give me recorded IC50 for CN(C)c1cc(-c2cccn(Cc3ccccn3)c2=O)nn1C(=O)c1ccco1
-- reply > 100000 nM

-- ask Quickly give me recorded IC50 for O=c1c(-c2cc(NCc3ccc(Cl)s3)[nH]n2)cccn1CCc1ccccc1
-- reply 10000 to 100000 nM

-- ask Quickly give me recorded IC50 for COc1ccc(C(=O)n2nc(-c3cccn(Cc4ccncc4)c3=O)cc2NCc2ccc(Cl)s2)c(OC)c1
-- reply < 100 nM

-- ask Quickly give me recorded IC50 for O=C(c1ccc(N2CCOCC2)cc1)n1nc(-c2ccc[nH]c2=O)cc1NCc1ccc(Cl)s1
-- reply < 100 nM

-- ask Quickly give me recorded IC50 for CC(C)(C)C(=O)n1nc(-c2cccn(Cc3ccc(Cl)cc3)c2=O)cc1NCc1ccc(Cl)s1
-- reply < 100 nM

-- ask Quickly give me recorded IC50 for O=C(c1cccs1)n1nc(-c2cccn(Cc3ccoc3)c2=O)cc1NCc1ccc(Cl)s1
-- reply < 100 nM
